What peptide exchange yield was measured for each of the following?
- Assayed System: T1, HLA-A*02:01 (human)
- T1 construct: monomers captured on streptavidin plates; also called MHC class I
- Experiment Notes: UV peptide exchange ELISA

Request: For the binder `ALMEDTGRQML` , give its measured peptide exchange yield value.
Response: 20 to 50%

Request: Give the reported peptide exchange yield for this binder. `ILLSQTTGV`
Response: 50 to 75%

Request: Consider the binder `FLIDDKGYTL` . State its measured peptide exchange yield.
Response: 20 to 50%

Request: Give the reported peptide exchange yield for this binder. `KLLEVSDDPQV`
Response: 50 to 75%

Request: # return recorded peptide exchange yield for input `RLLGEEVVRVLQA`
Response: 50 to 75%

Request: For the binder `LLWEVVSQL` , give its measured peptide exchange yield value.
Response: 50 to 75%

Request: Read off the recorded peptide exchange yield for `SLEPQIQPV`
Response: 20 to 50%

Request: Identify the reported peptide exchange yield for the following entry. `ALLEAQDVELYL`
Response: 20 to 50%

Request: // Input: `ALSEVDFQL` . Output its peptide exchange yield only.
Response: 50 to 75%

Request: Return the recorded peptide exchange yield value; entry: `KVLSNIHTV`
Response: 20 to 50%

Request: // Input: `QLLDVVLTI` . Output its peptide exchange yield only.
Response: 20 to 50%

Request: Kindly indicate its recorded peptide exchange yield. Item: `TLAPGEVLRSV`
Response: 50 to 75%

Request: Supply recorded peptide exchange yield for `AVGPASILKEV` here.
Response: 20 to 50%

Request: Input `LLFGSVQEV` , output reported peptide exchange yield.
Response: 50 to 75%

Request: Determine its reported peptide exchange yield: `ALIENLTHQI`
Response: 20 to 50%

Request: Recall and state the measured peptide exchange yield for `FLFSQLQYL` .
Response: 20 to 50%

Request: For the binder `LLYDAVHIVSV` , give its reported peptide exchange yield.
Response: 50 to 75%

Request: Specify measured peptide exchange yield for `FGLDLVTEL` .
Response: 50 to 75%

Request: Tell me measured peptide exchange yield for `ALWETEVYI` please.
Response: 50 to 75%

Request: Given `SQIALNEKLVNL` , respond with its peptide exchange yield.
Response: 50 to 75%

Request: Please list peptide exchange yield recorded for the binder `KLIDDQDISISL`
Response: 50 to 75%

Request: Name the recorded peptide exchange yield of the binder listed here: `YLDDLNEGVYI`
Response: 20 to 50%

Request: Report peptide exchange yield for `ALLGIPLTLV`
Response: 50 to 75%

Request: Return reported peptide exchange yield. Input binder: `YVLEFLEEI`
Response: 20 to 50%

Request: Let me know recorded peptide exchange yield for `QLCDLNAEL` , thanks.
Response: 50 to 75%

Request: Consider the binder `FLFATPVFI` and give its recorded peptide exchange yield.
Response: 50 to 75%

Request: # return recorded peptide exchange yield for input `SLMELPRGLFL`
Response: ≥ 75%

Request: Determine its reported peptide exchange yield: `SLLKEPQKVQL`
Response: 20 to 50%

Request: Return value of peptide exchange yield for input `YLFGERLLEC` , no commentary.
Response: 50 to 75%

Request: Provide only the value of recorded peptide exchange yield for `YLQLTQSEL`
Response: 50 to 75%

Request: Answer with the recorded peptide exchange yield for the binder listed here: `HLAEVSAEV`
Response: 50 to 75%

Request: Using the record for `GLTSTNAEV` , state its measured peptide exchange yield.
Response: 20 to 50%
